Reference source for all entries: patent US11472803B2

target.or.system: human M2 receptor (Homo sapiens)
Sequence (P08172 1-466): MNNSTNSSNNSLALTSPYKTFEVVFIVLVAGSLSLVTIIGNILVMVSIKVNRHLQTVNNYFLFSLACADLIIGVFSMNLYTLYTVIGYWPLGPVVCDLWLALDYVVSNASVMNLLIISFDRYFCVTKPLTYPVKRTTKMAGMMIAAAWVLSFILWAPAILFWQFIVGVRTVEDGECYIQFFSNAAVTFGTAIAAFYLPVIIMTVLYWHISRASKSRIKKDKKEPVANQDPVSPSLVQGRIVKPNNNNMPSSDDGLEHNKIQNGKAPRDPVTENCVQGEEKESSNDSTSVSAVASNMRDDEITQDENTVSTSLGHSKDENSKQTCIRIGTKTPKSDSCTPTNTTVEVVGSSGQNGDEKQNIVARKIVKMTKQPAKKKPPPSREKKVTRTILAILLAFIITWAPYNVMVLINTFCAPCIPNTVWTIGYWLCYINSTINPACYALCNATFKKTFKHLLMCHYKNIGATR
assay.notes: Functional M2-GIRK1/4 activation test: allosteric potency (EC50) and efficiency at EC20 acetylcholine
condition.context: CHO-DUKX-M2-GIRK cells; voltage-sensitive dye; acetylcholine at EC20; in some cases mean of two or more determinations
pEC50: −log10 of the molar value.
metric: pEC50

Look over these answered cases.
[[record]]
compound = "CCC(C)(C)NC(=O)c1cn(-c2c(F)cc(F)cc2Cl)c2nc(N3C[C@@H](O)[C@H](O)C3)c(F)cc2c1=O"
metric = "pEC50"
recorded_number = 8.57

[[record]]
compound = "CC[C@H](NC(=O)c1cn(-c2c(F)cccc2F)c2nc(N(C)CCO)c(F)cc2c1=O)C(F)(F)F"
metric = "pEC50"
recorded_number = 7.42

[[record]]
compound = "O=C(NC(C(F)(F)F)C(F)(F)F)c1cn(-c2c(F)cc(F)cc2F)c2nc(N3CCCC[C@@H]3CO)c(F)cc2c1=O"
metric = "pEC50"
recorded_number = 7.59

[[record]]
compound = "CC(C)C(NC(=O)c1cn(-c2c(F)cc(F)cc2F)c2nc(N3CC[C@H](O)C3)c(F)cc2c1=O)C(F)(F)F (single isomer, unassigned) [Example 140]"
metric = "pEC50"
recorded_number = 8.28

[[record]]
compound = "C[C@H](NC(=O)c1cn(-c2c(F)cc(F)cc2Cl)c2nc(N3C[C@@H](O)[C@H](O)C3)c(F)cc2c1=O)C(F)(F)F [Example 224]"
metric = "pEC50"
recorded_number = 8.00

[[record]]
compound = "CCC(NC(=O)c1cn(-c2c(F)cc(F)cc2F)c2nc(N3C[C@@H](O)[C@H](O)C3)c(F)cc2c1=O)C(C)C (single isomer, unassigned) [Example 29]"
metric = "pEC50"
recorded_number = 8.60

[[record]]
compound = "CCC(COC(F)(F)F)NC(=O)c1cn(-c2c(F)cc(F)cc2F)c2nc(N3C[C@@H](O)[C@H](O)C3)c(F)cc2c1=O (stereo partly drawn) [Example 26]"
metric = "pEC50"
recorded_number = 8.39

[[record]]
compound = "O=C(N[C@@H](C1CC1)C(F)(F)F)c1cn(-c2c(F)cc(F)cc2F)c2nc(N3CCCC3)c(F)cc2c1=O"
metric = "pEC50"
recorded_number = 8.32

[[record]]
compound = "CC1(O)CN(c2nc3c(cc2F)c(=O)c(C(=O)N[C@@H](C2CC2)C(F)(F)F)cn3-c2c(F)cc(F)cc2F)C1"
metric = "pEC50"
recorded_number = 7.80

[[record]]
compound = "CC[C@@H](NC(=O)c1cn(-c2c(F)cc(F)cc2F)c2nc(N3C[C@@H](O)[C@@H](O)C3)c(F)cc2c1=O)C(F)(F)F"
metric = "pEC50"
recorded_number = 7.96


(1) CC(C)C[C@H](NC(=O)c1cn(-c2c(F)cc(F)cc2F)c2nc(N3CC(O)[C@H](O)C3)c(F)cc2c1=O)C(F)(F)F (stereo in doubt)
(2) CC(NC(=O)c1cn(-c2c(F)cc(F)cc2F)c2nc(N3CCC(O)C(O)C3)c(F)cc2c1=O)C(F)(F)C(F)(F)F (single isomer, unassigned) [Example 183]
(3) CC[C@H](NC(=O)c1cn(-c2c(F)cc(F)cc2F)c2nc(N3CCCC[C@H]3CO)c(F)cc2c1=O)C(F)(F)F
Exam item: List the 3 entries from lowest pEC50 to highest pEC50 value. Provide your answer as the labels ordered per the instruction.
Marked response: 3, 2, 1
(3: 7.11, 2: 7.37, 1: 8.24)

(a) CC(NC(=O)c1cn(-c2c(F)cc(F)cc2F)c2nc(N3CCCC(O)(CO)C3)c(F)cc2c1=O)C(F)(F)C(F)(F)F (stereo not drawn)
(b) CC(C)(C)NC(=O)c1cn(-c2c(F)cc(F)cc2Cl)c2nc(N3C[C@@H](O)[C@H](O)C3)c(F)cc2c1=O
Exam item: Higher pEC50 between a and b ? # answer = label of selected item
Marked response: b
(b: 8.41, a: 6.89)

(A) CN1CCN(c2nc3c(cc2F)c(=O)c(C(=O)N[C@@H](C2CC2)C(F)(F)F)cn3-c2c(F)cc(F)cc2F)C(CO)C1 (stereo partly drawn)
(B) CCC(COC(F)(F)F)NC(=O)c1cn(-c2c(F)cc(F)cc2F)c2nc(N3CC[C@H](O)C3)c(F)cc2c1=O (single isomer, unassigned) [Example 111]
Exam item: Which value of pEC50 is greater, the one for A or the one for B ? # respond with the chosen item's label
Marked response: B

(P) O=C(N[C@@H](C1CC1)C(F)(F)F)c1cn(-c2c(F)cc(F)cc2F)c2nc(N3C[C@@H](O)CC3=O)c(F)cc2c1=O
(Q) CC(C)(NC(=O)c1cn(-c2c(F)cc(F)cc2F)c2nc(N3C[C@@H](O)[C@@H](O)C3)c(F)cc2c1=O)C(F)(F)F
(R) O=C(N[C@@H](C1CC1)C(F)(F)F)c1cn(-c2c(F)cc(F)cc2F)c2nc(N3CC[C@H](O)C3)c(F)cc2c1=O
(S) O=C(NC(C1CC1)C(F)(F)C(F)(F)F)c1cn(-c2c(F)cc(F)cc2F)c2nc(N3CC(CO)(CO)C3)c(F)cc2c1=O (single isomer, unassigned) [Example 207]
Exam item: Task field, ranking: reported pEC50, descending order. Please respond by ranking the labels in the order requested.
Marked response: S, R, Q, P

(1) CCC(NC(=O)c1cn(-c2c(F)cc(F)cc2F)c2nc(N3CCOCC3)c(F)cc2c1=O)C(F)(F)C(F)(F)F (racemic)
(2) CC(C)(NC(=O)c1cn(-c2c(F)cc(F)cc2Cl)c2nc(N3C[C@@H](O)[C@H](O)C3)c(F)cc2c1=O)C(F)(F)F (single isomer, unassigned) [Example 49]
(3) O=C(N[C@@H](C1CC1)C(F)(F)F)c1cn(-c2c(F)cc(F)cc2Cl)c2nc(N3CC(CO)(CO)C3)c(F)cc2c1=O [Example 69]
Exam item: Put the entries in order of pEC50, starting with the largest number. List labels; respect the requested ordering.
Marked response: 3, 1, 2
